Test system: GIST882 cell line
Test: Cancer cell cytotoxicity assay (sulforhodamine B)
Type: cell-based
Settings: Homo sapiens, 96 h; GIST882, 4 days; read-out: IC50 c-kit GIST882
assay readout: pIC50
Numbers only, as −log10 of the molar value.

Look up pIC50 for the entries below, preserving their order.
1. S=C(NCc1ccc2c(c1)OCO2)N1CCN(c2ncnc3c2sc2ncccc23)CC1 [HPK57]
2. O=S(=O)(Nc1ncccn1)c1ccc(NC(=S)N2CCN(c3ncnc4c3sc3ncccc34)CC2)cc1 [HPK60]
3. COc1cc2[nH]c3ncnc(N4CCN(C(=S)Nc5ccc(S(=O)(=O)Nc6ncccn6)cc5)CC4)c3c2cc1OC [HPK62]
4. COc1cc2ncnc(N3CCN(C(=S)Nc4ccc(S(=O)(=O)Nc5ncccn5)cc4)CC3)c2cc1OC [HPK16]

1: 4.55; 2: 4.30; 3: 4.55; 4: 4.30
